method_summary: Selectivity index, ratio of IC50 for mouse J774.1 cells to IC50 for Leishmania major MHOM/IL/81/FE/BNI promastigotes
Format: toxicity
measurement_parameters: J774.1 cells, read-out: Ratio IC50
As shown below, each of these compounds has a reported selectivity ratio value.
reported_metric: selectivity ratio

substance_smiles | relation_operator | test_value
CCCc1ccc(-[n+]2c(C)cc3cc(OC)cc(OC)c3c2C)cc1 | = | 1.14
COc1cc(OC)c2c(C)[n+](-c3c(C)cc(C)cc3C)c(C)cc2c1 | = | 2.82
COc1cc(OC)c2c(C)[n+](-c3cccc4ccccc34)c(C)cc2c1 | = | 2.63
COc1cc(OC)c2c(C)[n+](-c3ccc4ccccc4c3)c(C)cc2c1 | = | 2.41
COc1cc(OC)c2c(C)[n+](-c3ccc(Cl)cc3)c(C)cc2c1 | < | 1

* * *

tgt: Cytochrome P450 3A4 (Homo sapiens)
Sequence (P08684 whole entry): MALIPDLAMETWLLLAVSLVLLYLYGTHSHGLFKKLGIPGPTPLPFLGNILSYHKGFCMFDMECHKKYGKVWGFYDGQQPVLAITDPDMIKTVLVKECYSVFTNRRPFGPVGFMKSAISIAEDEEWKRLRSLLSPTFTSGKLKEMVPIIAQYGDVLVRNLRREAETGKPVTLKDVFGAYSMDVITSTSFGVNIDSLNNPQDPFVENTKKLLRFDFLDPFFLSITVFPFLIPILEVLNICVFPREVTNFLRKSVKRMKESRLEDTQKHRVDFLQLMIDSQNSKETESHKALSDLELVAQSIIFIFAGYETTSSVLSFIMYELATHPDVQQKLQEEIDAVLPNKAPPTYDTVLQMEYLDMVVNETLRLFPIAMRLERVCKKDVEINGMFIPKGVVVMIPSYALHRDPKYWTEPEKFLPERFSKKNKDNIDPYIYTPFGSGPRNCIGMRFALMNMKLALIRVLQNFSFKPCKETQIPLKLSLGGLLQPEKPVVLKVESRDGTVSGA
method_summary: Inhibition of human CYP3A4 at 100 uM by LC/ESI-MS analysis
Type: ADME

substance_smiles | Activity
COc1cc(OC)c2c(C)[n+](-c3ccc(C)cc3)c(C)cc2c1.F[B-](F)(F)F | Active
COc1cc(OC)c2c(C)[n+](-c3cccc4ccccc34)c(C)cc2c1.[O-][Cl+3]([O-])([O-])[O-] | Active
COc1cc(OC)c2c(C)[n+](-c3c(C)cccc3C)c(C)cc2c1.F[B-](F)(F)F | Active
